# protocol_details: Individual serum elimination rate and half-life (linear regression per employee)
# settings: individual estimate, subject 17, 5 samples
Assign HL (half-life) to each entry below.
Report the value in year with no unit label.

**Query** What value of measured HL (half-life) is listed for O=S(=O)(O)C(F)(F)C(F)(F)C(F)(F)C(F)(F)C(F)(F)F ?
**Result** 0.3

**Query** What value of measured HL (half-life) is listed for O=C(O)C(F)(F)C(F)(F)C(F)(F)C(F)(F)C(F)(F)F ?
**Result** 0.3

**Query** What value of measured HL (half-life) is listed for O=S(=O)(O)C(F)(F)C(F)(F)C(F)(F)C(F)(F)F ?
**Result** 0.1

**Query** What value of measured HL (half-life) is listed for O=S(=O)(O)C(F)(F)C(F)(F)C(F)(F)C(F)(F)C(F)(F)C(F)(F)C(F)(F)F ?
**Result** 0.4

**Query** What value of measured HL (half-life) is listed for O=S(=O)(O)C(F)(C(F)(F)F)C(F)(F)C(F)(F)C(F)(F)C(F)(F)C(F)(F)C(F)(F)F (stereo not drawn) [1m-PFOS, perfluoro-1-methylheptanesulfonate] ?
**Result** 0.3

**Query** What value of measured HL (half-life) is listed for O=S(=O)(O)C(F)(F)C(F)(F)C(F)(F)C(F)(F)C(F)(F)C(F)(F)C(F)(F)C(F)(F)F ?
**Result** 2.1
